pest or weed control at 50 g/ha listing for selected compounds.
- Test system: Transgenic T2 Arabidopsis plants and ARBTH WT MC24 non-transgenic
- test.description: Greenhouse post spray test, injury 14 DAT (Tables ii, iii);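 further: value is percent injury to the sprayed plants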
- Format: in vivo, Arabidopsis thaliana
- recorded.conditions: Arabidopsis thaliana, 336 h, Table ii, ALOMY_PPO2_R137L_F438V event G, 50 g ai/ha
// note: answer is a bare numeric in %

>  <compound.smiles>
CCOC(=O)COc1ccc(F)cc1Oc1nc(-n2c(=O)cc(C(F)(F)F)n(C)c2=O)c(F)cc1Cl

>  <recorded.result>
0

$$$$

Query block: Input CCOC(=O)COc1ncccc1Oc1nc(-n2c(=O)cc(C(F)(F)F)n(C)c2=O)c(F)cc1Cl , output reported pest or weed control at 50 g/ha.
Result block: 0

Query block: Input Cn1c(C(F)(F)F)cc(=O)n(-c2nc(Oc3ccccc3OCC(=O)NS(C)(=O)=O)c(Cl)cc2F)c1=O , output reported pest or weed control at 50 g/ha.
Result block: 0

Query block: Input CCOC(=O)COc1ccccc1Oc1nc(-n2c(=O)cc(C(F)(F)F)n(C)c2=O)c(F)cc1Cl , output reported pest or weed control at 50 g/ha.
Result block: 8

Query block: Input CCOC(=O)COc1ccccc1Oc1nc(-n2c(=O)cc(C(F)(F)F)n(C)c2=O)ccc1Br , output reported pest or weed control at 50 g/ha.
Result block: 0

====

- System: Variant PPO Enzyme R128A, F420M (Amaranthus PPO2)
- Format: biochemical
- recorded.conditions: variant R128A, F420M vs wild type
measurement.label: Tolerance Factor (R/S)
Reply: number alone, nothing else.

Study these solved cases before continuing.
>  <molecule>
CCOC(=O)COC(=O)COc1ncccc1Oc1nc(-n2c(=O)cc(C(F)(F)F)n(C)c2=O)c(F)cc1Cl [Uracilpyridine 18]

>  <Tolerance Factor (R/S)>
753

$$$$
>  <molecule>
C=CCOC(=O)COc1ncccc1Oc1nc(-n2c(=O)cc(C(F)(F)F)n(C)c2=O)c(F)cc1Cl [Uracilpyridine 13]

>  <Tolerance Factor (R/S)>
421

$$$$
>  <molecule>
CCOC(=O)COc1ccccc1Oc1nc(-n2c(=O)cc(C(F)(F)F)n(C)c2=O)c(F)cc1Cl [Uracilpyridine 4]

>  <Tolerance Factor (R/S)>
401

$$$$

Query block: Input Cn1c(C(F)(F)F)cc(=O)n(-c2nc(Oc3cccnc3OCC(=O)OCC(F)F)c(Cl)cc2F)c1=O [Uracilpyridine 16] , output reported Tolerance Factor (R/S).
Result block: 508

====

- Tested on: Variant PPO Enzyme R128A, F420M (Amaranthus PPO2)
- Type: biochemical
- recorded.conditions: variant R128A, F420M vs wild type
Think of 500 as a floor: if Tolerance Factor (R/S) stands on it or above, it is Criterion met; beneath it, Criterion not met.

>  <compound.smiles>
Cn1c(C(F)(F)F)cc(=O)n(-c2nc(Oc3ccccc3OCC(=O)NS(C)(=O)=O)c(Cl)cc2F)c1=O

>  <target.of.assay>
Variant PPO Enzyme R128A, F420M (Amaranthus PPO2)

>  <classification>
Criterion met

$$$$
>  <compound.smiles>
CCOC(=O)COc1ncccc1Oc1cc(-n2c(=O)cc(C(F)(F)F)n(C)c2=O)c(F)cc1Cl

>  <target.of.assay>
Variant PPO Enzyme R128A, F420M (Amaranthus PPO2)

>  <classification>
Criterion not met

$$$$
>  <compound.smiles>
Cn1c(C(F)(F)F)cc(=O)n(-c2nc(Oc3cccnc3OCC(=O)OCC3CC3)c(Cl)cc2F)c1=O

>  <target.of.assay>
Variant PPO Enzyme R128A, F420M (Amaranthus PPO2)

>  <classification>
Criterion not met

$$$$
>  <compound.smiles>
CCOC(=O)COc1ncccc1Oc1nc(-n2c(=O)cc(C(F)(F)F)n(C)c2=O)c(F)cc1Cl

>  <target.of.assay>
Variant PPO Enzyme R128A, F420M (Amaranthus PPO2)

>  <classification>
Criterion met

$$$$
>  <compound.smiles>
CCOC(=O)COc1ccccc1Oc1nc(-n2c(=O)c(C)c(C(F)(F)F)n(C)c2=O)c(F)cc1Cl

>  <target.of.assay>
Variant PPO Enzyme R128A, F420M (Amaranthus PPO2)

>  <classification>
Criterion met

$$$$

Query block: Hi team, for CC(C)COC(=O)COc1ncccc1Oc1nc(-n2c(=O)cc(C(F)(F)F)n(C)c2=O)c(F)cc1Cl , is the recorded Tolerance Factor (R/S) at or above 500?
Result block: Criterion not met

Query block: Hi team, for C#CCOC(=O)COc1ncccc1Oc1nc(-n2c(=O)cc(C(F)(F)F)n(C)c2=O)c(F)cc1Cl , is the recorded Tolerance Factor (R/S) at or above 500?
Result block: Criterion met

====

- target.of.assay: Wild Type PPO Enzyme (Amaranthus PPO2, SEQ ID NO: 1) (Amaranthus tuberculatus)
- Sequence (Q0NZW9 1-534): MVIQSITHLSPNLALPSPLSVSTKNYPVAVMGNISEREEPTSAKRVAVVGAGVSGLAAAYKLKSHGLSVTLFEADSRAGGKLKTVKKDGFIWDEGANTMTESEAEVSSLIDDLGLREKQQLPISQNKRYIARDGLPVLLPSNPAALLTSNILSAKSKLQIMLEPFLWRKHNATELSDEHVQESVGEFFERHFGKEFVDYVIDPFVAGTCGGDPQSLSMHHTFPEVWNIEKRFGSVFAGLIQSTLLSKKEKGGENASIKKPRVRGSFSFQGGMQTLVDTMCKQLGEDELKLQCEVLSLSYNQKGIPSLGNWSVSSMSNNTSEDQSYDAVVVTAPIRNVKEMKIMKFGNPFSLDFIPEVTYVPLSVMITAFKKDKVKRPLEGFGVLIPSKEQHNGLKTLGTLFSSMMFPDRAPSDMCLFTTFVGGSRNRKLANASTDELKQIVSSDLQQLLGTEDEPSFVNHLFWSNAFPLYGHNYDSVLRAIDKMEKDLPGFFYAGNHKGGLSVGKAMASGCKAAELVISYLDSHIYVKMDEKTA
- test.description: PPO enzyme assay (recombinant), wild type
measurement.label: pIC50
// scale note: pIC50 = -log10(conc_M); give the bare number

>  <compound.smiles>
CC(C)COC(=O)COc1ncccc1Oc1nc(-n2c(=O)cc(C(F)(F)F)n(C)c2=O)c(F)cc1Cl

>  <measurement.label>
pIC50

>  <recorded.result>
9.95

$$$$

Query block: Input C#CCOC(=O)COc1ncccc1Oc1nc(-n2c(=O)cc(C(F)(F)F)n(C)c2=O)c(F)cc1Cl , output reported pIC50.
Result block: 9.63

Query block: Input Cn1c(C(F)(F)F)cc(=O)n(-c2nc(Oc3ccccc3OCC(=O)NS(C)(=O)=O)c(Cl)cc2F)c1=O , output reported pIC50.
Result block: 9.67

Query block: Input CCOC(=O)COc1ccccc1Oc1nc(-n2c(=O)cc(C(F)(F)F)n(C)c2=O)c(F)cc1Cl , output reported pIC50.
Result block: 9.76

====

pest or weed control at 100 g/ha listing for selected molecules.
- Tested on: Transgenic T2 Arabidopsis plants and ARBTH WT MC24 non-transgenic
- test.description: Greenhouse post spray test, injury 14 DAT (Tables ii, iii);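 further: value is percent injury to the sprayed plants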
- Type: in vivo, Arabidopsis thaliana
- recorded.conditions: Arabidopsis thaliana, 336 h, Table ii, ALOMY_PPO2_R137L_F438V event G, 100 g ai/ha

Study these solved cases before continuing.
>  <compound.smiles>
CCOC(=O)COc1ncccc1Oc1nc(-n2c(=O)cc(C(F)(F)F)n(C)c2=O)c(F)cc1Cl

>  <pest or weed control at 100 g/ha>
10%

$$$$
>  <compound.smiles>
Cn1c(C(F)(F)F)cc(=O)n(-c2nc(Oc3ccccc3OCC(=O)NS(C)(=O)=O)c(Cl)cc2F)c1=O

>  <pest or weed control at 100 g/ha>
0%

$$$$
>  <compound.smiles>
CCOC(=O)COc1ccc(F)cc1Oc1nc(-n2c(=O)cc(C(F)(F)F)n(C)c2=O)c(F)cc1Cl

>  <pest or weed control at 100 g/ha>
0%

$$$$
>  <compound.smiles>
CCOC(=O)COc1ccccc1Oc1nc(-n2c(=O)cc(C(F)(F)F)n(C)c2=O)ccc1Br

>  <pest or weed control at 100 g/ha>
0%

$$$$

Query block: Input CCOC(=O)COc1ccccc1Oc1nc(-n2c(=O)cc(C(F)(F)F)n(C)c2=O)c(F)cc1Cl , output reported pest or weed control at 100 g/ha.
Result block: 15%

====

- System: Transgenic T2 Arabidopsis plants and ARBTH WT MC24 non-transgenic
- test.description: Greenhouse post spray test, injury 14 DAT (Tables ii, iii);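 further: value is percent injury to the sprayed plants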
- Format: in vivo, Arabidopsis thaliana
- recorded.conditions: Arabidopsis thaliana, 336 h, Table ii, ARBTH WT MC24 non-transgenic, 10 g ai/ha + 1% MSO
pest or weed control at 10 g/ha listing for selected compounds.
// note: answer is a bare numeric in %

Study these solved cases before continuing.
>  <compound>
CCOC(=O)COc1ccccc1Oc1nc(-n2c(=O)cc(C(F)(F)F)n(C)c2=O)c(F)cc1F [Uracilpyridine 8]

>  <measurement.label>
pest or weed control at 10 g/ha

>  <recorded.result>
100

$$$$
>  <compound>
CCOC(=O)COc1ccccc1Oc1nc(-n2c(=O)cc(C(F)(F)F)n(C)c2=O)c(F)cc1Cl [Uracilpyridine 4]

>  <measurement.label>
pest or weed control at 10 g/ha

>  <recorded.result>
100

$$$$
>  <compound>
Cn1c(C(F)(F)F)cc(=O)n(-c2nc(Oc3cccnc3OCC(=O)O)c(Cl)cc2F)c1=O [Uracilpyridine 3]

>  <measurement.label>
pest or weed control at 10 g/ha

>  <recorded.result>
100

$$$$

Let us move to another entry and its pest or weed control at 10 g/ha.
Query block: Input Cn1c(C(F)(F)F)cc(=O)n(-c2nc(Oc3ccccc3OCC(=O)O)c(F)cc2F)c1=O [Uracilpyridine 9] , output reported pest or weed control at 10 g/ha.
Result block: 100
